Assay: modulators of HCV replicon luciferase signal, primary screen, HCV replication inhibitor project, Huh7 cells, luciferase reporter (AID 1109);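 further: huh7 hepatoma cells harbouring a luciferase neomycin HCV replicon reporter; luciferase luminescence as measure of HCV replicon replication; test concentration not given here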
Details: 48 h, higher = more signal
Would you mind labelling by z-score? At or over -0.3 is criterion met, under is criterion not met.

>  <MOLECULE>
CCCCC(=C=CC[C@@H](O)c1ccc(OCCO)cc1)C[C@@H](O)COCc1ccccc1

>  <CLASS_ASSIGNMENT>
criterion not met

$$$$
>  <MOLECULE>
CC1CC/C=C\[C@H]2OC34C=CCN(c5ccc6ccccc6c5)C(=O)[C@H]3N(C(CO)C(C)C)C(=O)[C@@H]4C2C(=O)O1 (some centres not stated)

>  <CLASS_ASSIGNMENT>
criterion not met

$$$$
>  <MOLECULE>
CC(=O)NCCCC[C@@H]1NC(=O)[C@@H]2C[C@H](C(=O)O)[C@H](c3ccc(O)cc3)N2C1=O

>  <CLASS_ASSIGNMENT>
criterion met

$$$$
>  <MOLECULE>
C=CCNC(=O)[C@@H]1[C@H]2C(=O)O[C@H](c3ccccc3)[C@H](c3ccccc3)N2[C@H](c2ccc(OCCO)cc2)[C@@]12C(=O)N(C(=O)OCCOC)c1ccc(C#CC3=CCCCC3)cc12

>  <CLASS_ASSIGNMENT>
criterion not met

$$$$
>  <MOLECULE>
COCCOC(=O)N1C(=O)[C@@]2(c3ccccc31)[C@H](c1ccc(OCCO)cc1)N1[C@H](c3ccccc3)[C@H](c3ccccc3)OC(=O)[C@H]1[C@@H]2C(=O)Nc1nc2ccccc2s1

>  <CLASS_ASSIGNMENT>
criterion not met

$$$$
>  <MOLECULE>
COc1c(C)cc(-c2cc3c(c(-c4ccccc4)n2)[Si](C(C)C)(C(C)C)OC3)cc1C

>  <CLASS_ASSIGNMENT>
criterion met

$$$$

Next up:
Prompt: Given the entry C=CC[C@@H](OC(=O)Nc1ccc(OC)cc1)c1ccc(OCCO)cc1 , answer whether its z-score meets or surpasses -0.3.
Completion: criterion met

###

Assay: RPMI8226 myeloma cell viability, profiling panel, resazurin fluorescence, basal, 24 h, PK04 Diversity Set (AID 1180);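 further: RPMI8826 multiple myeloma cell line at 5000 cells per well; test concentration not given here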
Details: higher = more signal
PROPERTY_MEASURED: z-score
API doc: respond with a numeric literal and nothing else, no unit.

>  <MOLECULE>
C[C@H]1C2=C3C(CC[C@H]4C(OCc5ccc(F)cc5C(F)(F)F)OC[C@](C)([C@@H]34)N(C(=O)OC(C)(C)C)C2)C2COC(=O)OCC21 (some centres undefined)

>  <z-score>
-1.18

$$$$
>  <MOLECULE>
CC(C)(C)OC(=O)CC[C@]1(C(=O)NCCN2CCOCC2)N=C(c2ccc(OCCCO)cc2)O[C@H]1c1ccccc1

>  <z-score>
0.13

$$$$
>  <MOLECULE>
O=C(O)[C@]1(Cc2ccccc2)N=C(c2ccc(OCCCO)cc2)O[C@@H]1c1ccccc1

>  <z-score>
1.09

$$$$

Here's the next entry for you.
Prompt: Report z-score for COc1ccc(NN2C(C(O)c3ccco3)C=CC3C(=O)N(C4CCCCC4)C(=O)C32)cc1 (centres undefined)
Completion: -1.55

###

Test: adipocyte viability effects, profiling panel, cell-based, 3T3-L1 adipocytes, calcein-AM fluorescence, 48 h, basal (AID 1163); further: test concentration not given here
Conditions: 3T3-L1 adipocytes viability, higher = more signal
In this scheme, each record receives a class according to its z-score; the ranges are low bin: < 0.02; mid bin: ≥ 0.02 and < 0.7; high bin: ≥ 0.7

The examples below pair each entry with its known result.
>  <COMPOUND>
C=CC[C@@]12N=C(c3ccc(OCCCO)cc3)O[C@@H]1c1ccccc1N(CCS(=O)(=O)c1ccccc1)C2=O

>  <CLASS_ASSIGNMENT>
high bin

$$$$
>  <COMPOUND>
C[C@@H](OCc1ccccc1)C1NC(=O)[C@@]23C(=O)N[C@@H](Cc4ccccc4)C2[C@H](C)[C@@]2(C)O[C@H]2C3/C=C/C/C=C\CNC(=O)CNC1=O (stereo partly drawn)

>  <CLASS_ASSIGNMENT>
high bin

$$$$
>  <COMPOUND>
C=CC[C@]1(C(=O)N(C)C)N=C(c2ccc(OCCCO)cc2)O[C@H]1c1ccccc1N=[N+]=[N-]

>  <CLASS_ASSIGNMENT>
low bin

$$$$
>  <COMPOUND>
C[C@]12C(=O)N(CCCCCCO)[C@@H]3C(=O)N(c4ccc(Cl)cc4)CC=CC31O[C@@H]1/C=C\CCCOC(=O)C12 (stereo partly drawn)

>  <CLASS_ASSIGNMENT>
high bin

$$$$
>  <COMPOUND>
COCCOC(=O)N1C(=O)[C@@]2(c3cc(C#CCNC(N)=O)ccc31)[C@H](C(=O)N1CCCCCCC1)[C@H]1C(=O)O[C@H](c3ccccc3)[C@H](c3ccccc3)N1[C@@H]2c1ccc(O)cc1

>  <CLASS_ASSIGNMENT>
low bin

$$$$

Prompt: Category lookup for the compound COCCCNC(=O)[C@@]1(Sc2ccc(C)cc2)CC(=O)N(Cc2cc(C(F)(F)F)cc(C(F)(F)F)c2)[C@@H]1c1ccc(CO)cc1
Completion: low bin

Prompt: Category lookup for the compound [N-]=[N+]=NCc1ccccc1C[C@@]1(C(=O)NCCN2CCOCC2)N=C(c2ccc(OCCCO)cc2)O[C@@H]1c1ccccc1N=[N+]=[N-]
Completion: high bin

Prompt: Category lookup for the compound COc1cc2c(cc1OC)CN(C(=O)[C@H]1[C@@H]3C(=O)O[C@@H](c4ccccc4)[C@@H](c4ccccc4)N3[C@@H](c3ccc(OCCO)cc3)[C@]13C(=O)Nc1ccc(C#CCCO)cc13)CC2
Completion: low bin

Prompt: Category lookup for the compound O=C1O[C@@H](c2ccccc2)[C@@H](c2ccccc2)N2[C@@H](c3ccccc3OCCO)[C@]3(C(=O)Nc4ccccc43)[C@@H](C(=O)NC[C@H](O)c3ccccc3)[C@H]12
Completion: low bin

Prompt: Category lookup for the compound C=C(CCCC)C(=O)CC[C@@H](OC(=O)c1cccnc1)c1ccccc1OCCO
Completion: mid bin

Prompt: Category lookup for the compound CCOC(=O)C[C@H]1[C@H](OC(=O)c2ccc(C(=O)c3ccccc3)cc2)[C@@H](NC(=O)c2ccc3ccccc3c2)c2cc(OCCCO)ccc2N1C(=O)c1ccccc1
Completion: mid bin

Prompt: Category lookup for the compound CON(C)C(=O)C=C1C[C@@H](c2cccc(Cl)c2)O[C@@H](c2cccc(Cl)c2)O1
Completion: mid bin

###

Catalogue of compounds with associated composite z-score
Tested on: Wnt5a (protein binding on small-molecule microarray)
Assay: Wnt5a binders on small-molecule microarray, primary screen, biophysical, 635/667 nm fluorescence (AID 1142);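 further: fluorescence read at 667 nm with signal to noise per printed feature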
Conditions: 635 nm fluorescence, higher = more signal
API doc: respond with a numeric literal and nothing else, no unit.

Use the examples below as a reference point.
>  <MOL_SMILES>
C#CCNC(=O)[C@H](Cc1ccccc1)NC(=O)[C@@H](N=[N+]=[N-])C(C)C

>  <composite z-score>
0.0696

$$$$
>  <MOL_SMILES>
CN(C)CCCNC(=O)[C@@H]1c2ccccc2C(=O)N(CC23CC4CC(CC(C4)C2)C3)[C@H]1c1ccc(CO)cc1

>  <composite z-score>
0.528

$$$$
>  <MOL_SMILES>
C=CCN1C(=O)[C@@]2(O[C@@H](CCn3cc([C@H](O)c4ccccc4)nn3)[C@H]([Si](C)(C)c3ccc(OC)cc3)[C@H]2C)c2ccccc21

>  <composite z-score>
0.351

$$$$

Prompt: Report its composite z-score with Wnt5a (protein binding on small-molecule microarray) as the test system: CCC[C@@H]1C[C@@]1(CCC)[C@@H](NP(=O)(c1ccccc1)c1ccccc1)c1ccc(Cl)cc1
Completion: -0.298

###

Test: E. coli acrAB mutant growth effects, primary screen, E. coli filamentation inducers, strain DRC39, OD650, 48 h (AID 1179);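 further: screen aims at cell division blockers that make cells filament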
Conditions: E. coli DRC39 delta-acrAB growth, higher = more signal, called active from +8 up or from −8 down
PROPERTY_MEASURED: z-score
API doc: respond with a numeric literal and nothing else, no unit.

>  <COMPOUND>
[N-]=[N+]=NCc1ccccc1C[C@]1(C(=O)NCC(O)CO)N=C(c2ccc(OCCCO)cc2)O[C@H]1c1ccccc1CN=[N+]=[N-] (stereo not given in full)

>  <z-score>
-0.012

$$$$
>  <COMPOUND>
O=C(CS)NCCCCCCNC(=O)[C@@H]1C[C@@H]2C(=O)N3CCC[C@H]3C(=O)N2[C@@H]1c1cccc(OCCO)c1

>  <z-score>
1.65

$$$$

Prompt: Report z-score for CC(C)(C)OC(=O)CC[C@]1(C(=O)O)N=C(c2ccc(OCCCO)cc2)O[C@H]1c1ccccc1CN=[N+]=[N-]
Completion: 1.25

Prompt: Report z-score for COc1cc2c(cc1OC)CN(C(=O)[C@H]1[C@@H]3C(=O)O[C@@H](c4ccccc4)[C@@H](c4ccccc4)N3[C@@H](c3ccc(OCCO)cc3)[C@]13C(=O)Nc1ccc(C#CC4(O)CCCCCC4)cc13)CC2
Completion: 1.25

Prompt: Report z-score for C=C1C2CC3C(=C4C(CO[C@@H]4[C@H]4CCCN4S(=O)(=O)c4ccccc4[N+](=O)[O-])C4C(=O)N(C)C(=O)C34)CC2C(=O)N1C (stereo not given in full)
Completion: -0.219

Prompt: Report z-score for COC(=O)C(CC#Cc1ccc2c(c1)[C@]1(C(=O)N2)[C@H](C(=O)O)[C@H]2C(=O)O[C@H](c3ccccc3)[C@H](c3ccccc3)N2[C@@H]1c1ccccc1OCCO)C(=O)OC
Completion: 0.202
